TARGET: T1, TROP2 on MDA-468 cells over-expressing TROP2 (TROP2+ MDA-468) (UniProt P09758 27-323)
T1 sequence (looked up): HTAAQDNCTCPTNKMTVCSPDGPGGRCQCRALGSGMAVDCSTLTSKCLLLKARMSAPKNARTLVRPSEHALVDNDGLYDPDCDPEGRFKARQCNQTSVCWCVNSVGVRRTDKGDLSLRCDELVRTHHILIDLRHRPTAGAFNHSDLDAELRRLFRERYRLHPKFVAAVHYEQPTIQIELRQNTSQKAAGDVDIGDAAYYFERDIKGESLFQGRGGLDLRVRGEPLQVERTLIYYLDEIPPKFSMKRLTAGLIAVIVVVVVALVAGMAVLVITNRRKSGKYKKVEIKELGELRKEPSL
ASSAY NOTES: cell-based or functional assay
MEASURED QUANTITY: Indirect Cytotoxicity IC50 (nM)
// note: answer is a bare numeric in nM

1. TROP2-Ab46 (antibody, V domains shown, Monoclonal antibody from a hybridoma clone) VH: QVQLQQPGAELVRPGASVRLSCKSSGYTFTSYWINWVKQRPGQGLEWIGNIFPSHSYTNYNQKFRDKATLTVDKSSSTAYLQLSSPTSDDSAVYYCTRGSGFDYWGQGTALTVSS VL: DILLTQSPAILSVSPGERVSFSCRASQNIGTSIHWYQQRTNGSPRLLISYASESISGIPSRFSGSGSGTDFTLIINSVESEDIADYYCQHSYSWPFTFGSGTKLEVK	0.0672
2. TROP2-Ab22 (antibody, V domains shown, Monoclonal antibody from a hybridoma clone) VH: QVQLQQSGPELVKPGASVKMSCKASGYTFTDYVINWVKQRPGQGLEWVGQIYPGSDGTYYNEPFKGEATLTADKSSNTAYMQLSSLTSEDSAVYFCARFFEGFAYWGQGTLVTVSA VL: DIKMTQSPSSMFASLGERVTITCKASQDINWYLSWFQQKPGKSPKTLIYRANRLVDGVPSRFSGSGSGQDYSLTISSLDYEDMGVYYCLQYEEFPLTFGAGTKLELK	0.0587
3. TROP2-Ab7 (antibody, V domains shown, Monoclonal antibody from a hybridoma clone (V regions amplified with mouse Ig primers)) VH: QVQLQQSGPEVVKPGASVKMSCKASGYRFTDYVINWVKQRSGQGLEWIGQIYPGSDTFHYNKNFKGKATLTADKSSNTAYMQLNSLTSEDSAVYFCARFFEGFAYWGQGTLVTVSA VL: DIKMTQSPSSMYAFLGERVTITCKASQGINNYLSWFHLKPGKSPKSLIYRANRLVDGVPSRFSGSGSGQDYSLTISSLDYEDVGIYYCLQYDEFPLTFGGGTKLELK	0.044

Entry TROP2-Ab50 (antibody, V domains shown, Monoclonal antibody from a hybridoma clone; also called TROP2 -Ab0) VH: QVQLQQSGAELVRPGTSVKISCKASGYTFTNYWLDWIKQRPGQGLEWIGNIFPGGDYTNYNEEFRGKATLTADTSSRTAFMQLSSLTSEDSAVYFCARSSYDYWGQGTLVTVSA VL: DILLTQSPAILSVSPGERVSFSCRASQNIGTSIHWYQQRTNGSPRLLIKYSSESISGIPSRFSGSGSGTDFSLTINSVESEDIGDYYCQHSYTWPFTFGSGTKLEIK : reported Indirect Cytotoxicity IC50 = ?
0.0992

Entry TROP2-Ab8 (antibody, V domains shown, Monoclonal antibody from a hybridoma clone) VH: QVQLQQSGPEVVKPGASVKMSCKASGYRFTDYVINWVKQRTGQGLEWIGQIYPGSDSFHYNKNFKGKATLTADKSSNTAYMQLNSLTSEDSAVYFCARFFEGLAYWGQGTLVTVSA VL: DIKMTQSPSSMYAFLGERVTITCKASQGINNYLSWFQLKPGKSPKSLIYRANRLVDGVPSRFSGSGSGQDYSLTISSLDYEDMGIYYCLQYDEFPLTFGGGTKLELK : reported Indirect Cytotoxicity IC50 = ?
0.0271

Entry TROP2-Ab51 (antibody, V domains shown, Monoclonal antibody from a hybridoma clone) VH: QVQLQQSGPEVVKPGASVKMSCRASGYRFTDYVINWVKQRTGQGLEWIGQIYPGSDSFHYNKNFKGKATLTADKSSNTAYMQLNSLTSEDSAVYFCARFFEGFAYWGQGTLVTVSA VL: DIKMTQSPSSMYAFLGERVTITCKASQGINNYLSWFQLKPGKSPKSLIYRANRLVDGVPSRFSGSGSGQDYSLTISSLDYEDMGIYYCLQYDEFPLTFGGGTKLELK : reported Indirect Cytotoxicity IC50 = ?
0.0567
